# credit: ChEMBL document CHEMBL1135144

Test: Compound was evaluated for rate of clearance in IPRL (Isolated Perfused Rat Liver)
Type: ADME
recorded_metric: k el
Answer format: number, then unit.

{"compound": "CCCS(=O)(=O)c1nc(N[C@@H](Cc2ccc(NC(=O)c3c(Cl)cncc3Cl)cc2)C(=O)O)cc(C(=O)O)n1", "k el": "0.00025 s⁻¹"}
{"compound": "O=C(Nc1ccc(CC(Nc2ccc(Cl)cn2)C(=O)O)cc1)c1c(Cl)cncc1Cl (stereo unspecified)", "k el": "5.56e-05 s⁻¹"}
{"compound": "CS(=O)(=O)c1cc(N[C@@H](Cc2ccc(NC(=O)c3c(Cl)cncc3Cl)cc2)C(=O)O)ncn1", "k el": "0.00111 s⁻¹"}
{"compound": "COc1cc(N[C@@H](Cc2ccc(NC(=O)c3c(Cl)cncc3Cl)cc2)C(=O)O)nc(S(C)(=O)=O)n1", "k el": "0.00136 s⁻¹"}
{"compound": "O=C(Nc1ccc(C[C@H](Nc2cc(S(=O)(=O)Cc3ccccc3)ncn2)C(=O)O)cc1)c1c(Cl)cncc1Cl", "k el": "0.00144 s⁻¹"}

# next compound below
Answer with the recorded k el of CCC[S+]([O-])c1cc(NC(Cc2ccc(NC(=O)c3c(Cl)cncc3Cl)cc2)C(=O)O)ncc1Cl (stereo unspecified) only.
0.00128 s⁻¹
